# Test system: NCI-H522 lung
# procedureDetails: NCI-60 one-dose screen, 48 h (100 = growth as untreated, 0 = no growth, -100 = all killed)
# settings: 10 µM unless noted
# Description: Growth inhibition of the NCI-H522 human Non-Small Cell Lung tumor cell line is measured as a screen for anti-cancer activity. Cells are grown in 96 well plates and exposed to the test compound for 48 hours. Compounds are tested at a single concentration, which is 10^-5 M for most compounds. The reported endpoint is percent growth (GI% or GIPRCNT), where numbers from 0 - 100% represent growth inhibition, and numbers from -100% - 0 represent cell death. […]
The panel holds about 83,000 compounds, 20% with a hit somewhere; the sample as a whole holds those more often. The source made the active and inactive calls. Rule for the calls: active = growth percent below 10; inactive = the rest.
Each entry below carries its recorded growth.

molecule	testedTarget	growth
N#Cc1c(Nc2ccc(N3CCOCC3)cc2)nc(SCC(=O)c2ccc(Br)cc2)nc1-c1ccccc1	NCI-H522 lung	96.2% (inactive)
CCCCCCCCCCCCCCCCCCOc1ccccc1CC(=O)NCC[N+]1(C)CCCCC1	NCI-H522 lung	32.7% (inactive)
Fc1ccc(Cn2cc(CSc3nc4ccccc4o3)nn2)cc1	NCI-H522 lung	83.4% (inactive)
CCCCNC(=O)Oc1ccc(/C(=C(/C)Cc2ccc(OC)cc2)c2ccc(OCCN3CCCCC3)cc2)cc1	NCI-H522 lung	81.2% (inactive)
CCN1C(=O)N(CC)C2C1NN=c1s/c(=C3\C(=O)N(CCC(C)C)c4ccccc43)c(=O)n12 (stereo not drawn)	NCI-H522 lung	1.9% (active)
COc1cc(/C=C/C(=O)/C=C(O)/C=C/c2ccc(OC(=O)C34CC5CC(CC(C5)C3)C4)c(OC)c2)ccc1OC(=O)C12CC3CC(CC(C3)C1)C2	NCI-H522 lung	94.8% (inactive)
O=c1cc(-c2ccccc2)[nH]c2ncc(-c3ccc(F)cc3)n12	NCI-H522 lung	36% (inactive)
C#CCn1cnc2cnc(Nc3cccc(NC(=O)C=C)c3)nc21	NCI-H522 lung	71.4% [6.25 µM] (inactive)
Clc1ccccc1-c1cnn2cc(-c3ccccc3)cnc12	NCI-H522 lung	77.3% (inactive)
COc1ccc(C(=O)/C=C/c2ccc(N3CCCCC3)cc2)cc1OC	NCI-H522 lung	84.4% (inactive)
CN(C)CCN1C(=O)c2cccc3c(/C=C/CN4C(=O)c5cccc6cccc(c56)C4=O)ccc(c23)C1=O	NCI-H522 lung	101% (inactive)
O=C(O)c1cn(C2CC2)c2cc(N3CCN(C(=O)Nc4nc(-c5ccc(Br)cc5)cs4)CC3)c(F)cc2c1=O	NCI-H522 lung	5.78% (active)
COc1ccc(C(O)c2cc3c(N)c(C(=O)Nc4cccc(Cl)c4C)sc3nc2C)cc1 (stereo not drawn)	NCI-H522 lung	-34.9% (active)
COc1cc2c(cc1OCCCCN1CCN(C(=S)SCCC(C#N)(c3ccccc3)c3ccccc3)CC1)N=C[C@@H]1CCCN1C2=O	NCI-H522 lung	-54.1% (active)
C/C=C(\C)C(=O)N[C@H]1C(O)C[C@]2(C)C3CC[C@@]4(C)C(CC[C@@H]4C(C)N(C)C)C3CCC2C1O (stereo partly drawn)	NCI-H522 lung	90.6% (inactive)
CN1CCN(CC(=O)Nc2ccc3ncnc(Nc4ccc(Oc5cccc(C(F)(F)F)c5)c(Cl)c4)c3c2)CC1	NCI-H522 lung	18% (inactive)
Cc1ccc(S(=O)(=O)N2CCC(=O)c3ccccc32)cc1	NCI-H522 lung	84% (inactive)
Cc1nn(-c2ccccc2)c(N)c1N=C1NC(=O)/C(=C/c2ccc(Br)cc2)S1	NCI-H522 lung	85.4% (inactive)
O=C(/C=C(O)/C=C/c1cccc2[nH]ccc12)/C=C/c1cccc2[nH]ccc12	NCI-H522 lung	34% (inactive)
CC(=C(c1ccc(OCCN2CCCCC2)cc1)c1ccc(OCCN2CCCCC2)cc1)c1ccc(Cl)cc1	NCI-H522 lung	-76.9% (active)
CCN1C(=O)N(CC)C2Nn3c(s/c(=C\c4ccccc4Br)c3=O)=NC21 (stereo not drawn)	NCI-H522 lung	-12.8% (active)
Nc1[nH]n2cc(-c3ccc(F)cc3)nc2c1N=Nc1ccc(S(N)(=O)=O)cc1	NCI-H522 lung	55.3% (inactive)
COc1ccc(Cn2cc3c(c2-c2ccccc2)CCc2cnoc2-3)cc1	NCI-H522 lung	12.1% (inactive)
CCOC(=O)C(=Cc1ccc(-c2ccccc2)cc1)C(=O)OCC	NCI-H522 lung	26% (inactive)
CCN(CC)CCCN1C(=O)c2c(c(C)c3c(oc4ccc(O)cc43)c2C)C1=O	NCI-H522 lung	80% (inactive)
CCc1ccc(CCC(=O)Nc2ncc(Cc3cc(Cl)ccc3Cl)s2)o1	NCI-H522 lung	3.35% (active)
CC1=CC(c2ccco2)=C2C(N)=NNC2N1 (stereo not drawn)	NCI-H522 lung	95.2% (inactive)
O=C(CN1CCN(c2cc3c(cc2F)c(=O)c(C(=O)O)cn3C2CC2)CC1)N/N=C/c1ccco1	NCI-H522 lung	93.5% (inactive)
COc1ccc(CNc2c3ccccc3nc3ccccc23)c(OC)c1	NCI-H522 lung	40.6% (inactive)
O=C(Cc1ccccc1)Nc1cccc(N=Cc2ccccc2O)c1	NCI-H522 lung	91.1% (inactive)
[2H]C([2H])([2H])Oc1ccc(F)cc1/C=C/C(=O)/C=C(O)/C=C/c1cc(F)ccc1OC([2H])([2H])[2H]	NCI-H522 lung	74.4% (inactive)
O=C1Nc2ccccc2/C1=C/c1cccn1C(=O)c1ccc(Cl)s1	NCI-H522 lung	37.8% (inactive)
O=C1NC(=O)/C(=C/c2c(-c3ccccc3)nc3sc(COc4ccccc4)nn23)S1	NCI-H522 lung	83.6% (inactive)
COc1cc(/C=C/C(=O)c2ccc(-n3cc(CN4CCN(c5cc6c(cc5F)c(=O)c(C(=O)O)cn6C5CC5)CC4)nn3)cc2)ccc1O	NCI-H522 lung	83.9% (inactive)
Cc1[nH]c(C2CC(c3ccc(C(F)(F)F)c(F)c3)=NN2c2ccccc2)c(C)c1C(=O)NCC(F)(F)F (stereo not drawn)	NCI-H522 lung	89.5% (inactive)
CCN(CC)CCN1C(=O)c2c(c(C)c3c(oc4ccc(OC)cc43)c2C)C1=O	NCI-H522 lung	95% (inactive)
Cc1ccc(C(=O)c2ccc(CC(=O)NN3C(=O)c4ccccc4C3=O)n2C)cc1	NCI-H522 lung	88.1% (inactive)
CCN1C2CCC1/C(=C\c1ccc(F)cc1)C(=O)/C2=C/c1ccc(F)cc1	NCI-H522 lung	36.7% (inactive)
